Test system: ornithine decarboxylase (ODC)
Assay: ODC assay: inhibition of TPA induction of ornithine decarboxylase (retinoid-like activity)
Type: biochemical
Conditions: concentration of the test compound which causes 80% inhibition in the ODC assay (TPA-induced ODC)
quantityKind: log10 IC80 conc (log10 of the value in nmols)
Heads up: the numbers are on a log10 scale; they represent IC80 conc in nmols.

Before answering, review these 5 worked examples.
CCOC(=O)c1ccc(C#Cc2ccc3c(c2)[C@H](O[C@H]2CCCCO2)CCC3(C)C)cc1 (relative stereo) [Compound 16] :: -0.22
CC1(C)CC[C@@H](O[C@@H]2CCCCO2)c2cc(C#Cc3ccc(C(=O)O)cc3)ccc21 (relative stereo) [Compound 33] :: -1.10
CC1(C)CC[C@@H](O[C@H]2CCCCO2)c2cc(C#Cc3ccc(C(=O)O)cc3)ccc21 (relative stereo) [Compound 34] :: 0.36
CCOC(=O)c1ccc(C#Cc2ccc3c(c2)C(C)(C)CCC3O[Si](C)(C)C)cc1 (stereo not drawn) [Compound 111] :: 0.53
CCOC(=O)c1ccc(C#Cc2ccc3c(c2)C(O)CCC3(C)C)cc1 (stereo not drawn) [Compound 10] :: 0.50

Lookup: What value of log10 IC80 conc has been reported for the following compound? CCOC(=O)c1ccc(C#Cc2ccc3c(c2)[C@H](O[C@@H]2CCCCO2)CCC3(C)C)nc1 (relative stereo) [Compound 17]
Found: -0.46

Lookup: // lookup log10 IC80 conc for CCOC(=O)c1ccc(C#Cc2ccc3c(c2)C(C)(C)CCC3SC(C)=O)cc1 (stereo not drawn) [Compound 143]
Found: -0.82

Lookup: Which log10 IC80 conc is listed for CCOC(=O)c1ccc(C#Cc2ccc3c(c2)C(C)(C)CC[C@@H]3O[C@H]2CCCCO2)cc1 (relative stereo) [Compound 14] ?
Found: 0.45

Lookup: Value lookup for log10 IC80 conc; key = CC1(C)CCC(O)c2cc(C#Cc3ccc(C(=O)O)cc3)ccc21 (stereo not drawn) [Compound 41]
Found: 0.97

Lookup: Recorded log10 IC80 conc for CC1(C)CC[C@H](O[C@@H]2CCCCO2)c2ccc(C#Cc3ccc(C(=O)O)cc3)cc21 (relative stereo) [Compound 32] , please?
Found: 0.62

###

Tested on: ornithine decarboxylase (ODC)
Assay: ODC assay: inhibition of TPA induction of ornithine decarboxylase (retinoid-like activity)
Type: biochemical
Details: concentration of the test compound which causes 80% inhibition in the ODC assay (TPA-induced ODC)
Attribute: log10 IC80 conc
A difference of one corresponds to tenfold IC80 conc; all values are log10 with IC80 conc in nmols.

CCOC(=O)CC1(O)CCC(C)(C)c2cc(C#Cc3ccc(C(=O)OCC[Si](C)(C)C)cc3)ccc21 (centres unmarked) [Compound 117] :: 0.93
CCOC(=O)c1ccc(C#Cc2ccc3c(c2)C(C)(C)CCC3O)cc1 (centres unmarked) [Compound 9] :: -0.04
CC1(C)CC[C@@H](O[C@@H]2CCCCO2)c2cc(C#Cc3ccc(C(=O)O)cn3)ccc21 (relative stereo) [Compound 36] :: 1.27
CCOC(=O)c1ccc(C#Cc2ccc3c(c2)[C@H](O[C@@H]2CCCCO2)CCC3(C)C)cc1 (relative stereo) [Compound 15] :: -1.05
CCOC(=O)c1ccc(C#Cc2ccc3c(c2)C(C)(C)CCC3(C#N)O[Si](C)(C)C)cc1 (centres unmarked) [Compound 107] :: 0.16

Lookup: Query for ornithine decarboxylase (ODC): what log10 IC80 conc does the record show for CCOC(=O)c1ccc(C#Cc2ccc3c(c2)C(OC2CCCCC2)CCC3(C)C)cc1 (centres unmarked) [Compound 6] ?
Found: 0.58

Lookup: Param readout= log10 IC80 conc; system= ornithine decarboxylase (ODC); entry= CCOC(=O)CC1(O)CCC(C)(C)c2ccc(C#Cc3ccc(C(=O)OCC)cc3)cc21 (centres unmarked) [Compound 119] ; returns value.
Found: 0.00

Lookup: Which measured log10 IC80 conc belongs to CCOC(=O)CC1(O)CCC(C)(C)c2cc(C#Cc3ccc(C(=O)OCC)cc3)ccc21 (centres unmarked) [Compound 113] , tested on ornithine decarboxylase (ODC)?
Found: 0.12

Lookup: Reported log10 IC80 conc for ornithine decarboxylase (ODC), given CCOC(=O)c1ccc(C#Cc2ccc3c(c2)C(C)(C)CC[C@@H]3O[C@@H]2CCCCO2)cc1 (relative stereo) [Compound 13] ?
Found: 0.86
